Some binders, each annotated with its measured Apoptosis (5 ug/ml), RCK8.
# test-system: T1, human CD20 antigen (human, UniProt P11836 1-297)
# T1 sequence (looked up): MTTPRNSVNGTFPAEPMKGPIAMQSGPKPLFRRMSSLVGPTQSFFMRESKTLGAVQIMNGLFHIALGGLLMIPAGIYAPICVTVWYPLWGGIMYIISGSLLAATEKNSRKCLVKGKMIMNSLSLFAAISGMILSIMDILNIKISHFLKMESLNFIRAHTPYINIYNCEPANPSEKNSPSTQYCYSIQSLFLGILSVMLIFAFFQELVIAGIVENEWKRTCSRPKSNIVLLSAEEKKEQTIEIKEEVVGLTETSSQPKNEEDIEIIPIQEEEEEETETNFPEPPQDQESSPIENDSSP
# experimental-details: cell-based or functional assay

Q: In one line, give reported Apoptosis (5 ug/ml), RCK8 of the entry humanized 1K1791 antibody ff (FraL x FraH) (antibody, V domains shown, Kappa, gamma 1 construct; also called hz1791 ff; Ff019) VH: QIQLVQSGSELKKPGASVKVSCKASGYTFTNFGVNWVKQAPGKGLKWMGWINTYTGEPSYADDFKGRFAFSLDASASTAYLQISSLKAEDMATYFCTRRTNYYGTSYYYAMDYWGQGTTVTVSS VL: STVMTQSPSFLSASVGDRVTITCKASQSVSNDVAWYQQKPGQSPKVLIYFASNRYTGVPDRFSGSGYGTDFTLTISSLQAEDVAVYFCQQDYSSPLTFGAGTKLEIK .
Result: 47 relative, m2B8 = 100

Q: In one line, give reported Apoptosis (5 ug/ml), RCK8 of the entry humanized 1K1791 antibody ss (SdrL x SdrH) (antibody, V domains shown, Kappa, gamma 1 construct; also called hz1791 ss; Ss020) VH: QIQLVQSGSELKKPGASVKVSCKASGYTFTNFGVNWVRQAPGKGLKWMGWINTYTGEPSYAQGFTGRFAFSLDASVSTAYLQISSLKAEDTATYFCTRRTNYYGTSYYYAMDYWGQGTTVTVSS VL: STVMTQSPDSLAVSLGERATINCKSSQSNSNDVAWYQQKPGQSPKVLIYFASNRYSGVPDRFSGSGYGTDFTLTISSLQAEDVAVYFCQQDYSSPLTFGAGTKLEIK .
Result: 92 relative, m2B8 = 100

Q: In one line, give reported Apoptosis (5 ug/ml), RCK8 of the entry humanized 1K1791 antibody fv (FraL x VenH) (antibody, V domains shown, Kappa, gamma 1 construct; also called hz1791 fv; Fv010) VH: QIQLVQSGPELKKPGASVKISCKASGYTFTNFGVNWVKQAPGKGLKWMGWINTYTGEPSYADDFKGRFAFSLDASVSTAYLQISSLKAEDTSTYFCTRRTNYYGTSYYYAMDYWGQGTTVTVSS VL: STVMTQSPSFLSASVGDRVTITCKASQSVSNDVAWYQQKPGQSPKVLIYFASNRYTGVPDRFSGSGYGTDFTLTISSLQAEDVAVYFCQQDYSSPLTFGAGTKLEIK .
Result: 50 relative, m2B8 = 100

Values compiled from patent US20090203886A1.
